# Test system: neutrophils
# assayNotes: Neutrophil calcium flux assay (5-OXO-ETE-stimulated, Indo-1 fluorescence)
# Type: cell-based
# details: Neutrophil, 5-OXO-ETE-stimulated calcium flux
pIC50: −log10 of the molar value.
endpoint: pIC50

Batch of 4 compounds: report pIC50 for each.
1. Cn1c(-c2ccccc2Cl)cc(C(=O)N2CC[C@H](C(=O)O)C2)c1CCCCOCc1cccc(Cl)c1 [Compound I-171]
2. C[C@H](CC(=O)O)CC(=O)c1c(CCCCCCc2ccc(O)cc2)n(C)c2ccc(Cl)cc12 [Compound I-10]
3. C[C@H](CC(=O)O)CC(=O)c1c(CCCCOCc2cccc(Cl)c2)n(C)c2ccc(C#N)cc12 [Compound I-180]
4. C[C@H](CC(=O)O)CC(=O)c1c(CCCCCCCC#CC2CC(F)(F)C2)n(C)c2ccc(Cl)cc12 [Compound I-331]

Solution:
< 6.52
> 7.00
> 7.00
> 7.00

Batch of 3 compounds: report pIC50 for each.
1. CC(CC(=O)O)CC(=O)c1c(CCCCOCc2cccc(C#N)c2)n(C)c2ncccc12 (stereo not shown) [Compound I-392]
2. C[C@H](CC(=O)O)NC(=O)c1c(CCCCOCc2cccc(Cl)c2)n(C)c2ncc(C#N)cc12 [Compound I-238]
3. CC(=O)N(C)c1cccc(COCCCCc2c(C(=O)CC(C)CC(=O)O)c3cc(C#N)cnc3n2C)c1 (stereo not shown) [Compound I-299]

Solution:
1. 6.52 to 7.00
2. < 6.52
3. 6.52 to 7.00
